Hey, just so you know, these numbers are from ChEMBL document CHEMBL3431459.

MEASURED_ON: Carnitine O-palmitoyltransferase 1, liver isoform (Homo sapiens)
Sequence (P50416 whole entry, canonical isoform): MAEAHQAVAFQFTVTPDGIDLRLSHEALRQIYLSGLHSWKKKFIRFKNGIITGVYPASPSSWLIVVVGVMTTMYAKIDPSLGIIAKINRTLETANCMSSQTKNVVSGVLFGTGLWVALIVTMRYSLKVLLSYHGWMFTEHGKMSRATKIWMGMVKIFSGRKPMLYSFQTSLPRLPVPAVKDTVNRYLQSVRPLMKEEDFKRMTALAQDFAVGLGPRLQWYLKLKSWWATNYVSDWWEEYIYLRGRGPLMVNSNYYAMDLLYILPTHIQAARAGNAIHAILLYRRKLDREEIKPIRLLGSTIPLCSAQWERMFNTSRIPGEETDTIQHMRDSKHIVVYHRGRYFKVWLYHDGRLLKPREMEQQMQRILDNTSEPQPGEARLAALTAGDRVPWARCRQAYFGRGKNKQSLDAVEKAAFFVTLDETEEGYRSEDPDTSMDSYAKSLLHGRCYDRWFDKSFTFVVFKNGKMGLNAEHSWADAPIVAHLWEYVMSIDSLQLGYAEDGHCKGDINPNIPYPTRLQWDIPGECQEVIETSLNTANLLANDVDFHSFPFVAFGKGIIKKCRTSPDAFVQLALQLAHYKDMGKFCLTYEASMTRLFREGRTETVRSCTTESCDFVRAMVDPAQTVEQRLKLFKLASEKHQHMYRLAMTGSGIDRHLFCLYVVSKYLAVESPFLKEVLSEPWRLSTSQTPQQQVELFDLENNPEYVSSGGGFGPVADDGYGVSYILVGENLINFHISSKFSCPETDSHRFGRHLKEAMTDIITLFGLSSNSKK
EXPERIMENT_DESCRIPTION: SUPPLEMENTARY: Inhibition of Carnitine palmitoyltransferase 1, liver isoform
Listing of entries alongside the reported log10 IC50.
ASSAY_ENDPOINT: log10 IC50 (log10 of the value in nM)

1) NC(=O)c1cccc(-c2n[nH]c([C@H]3CCCCN3C(=O)COc3ccccc3)n2)c1; 1.97
2) O=C1Cc2cc(-c3noc([C@H]4CNCCN4C(=O)COc4ccccc4)n3)ccc2N1; 2.02
3) Cn1ccc(-c2nc([C@H]3CCCCN3C(=O)COc3ccccc3)no2)n1; 2.19
4) COc1ccc(Cl)cc1S(=O)(=O)N1CCCc2ccc(Oc3ccc(CC(=O)O)cc3)cc21; 2.74
5) COc1ccc(C)cc1S(=O)(=O)N1CCCc2ccc(C(=O)Nc3nc(CC(=O)O)cs3)cc21; 1.74
6) O=C([C@H]1CCCCN1C(=O)COc1ccccc1)N1Cc2cc(Cl)c(N3CCOCC3)cc2C1; 2.16
7) O=C([C@H]1CCCCN1C(=O)COc1ccccc1)N1Cc2ccc(OCC3CC3)cc2C1; 2.41
8) O=C(COc1ccccc1)N1CCCC[C@@H]1c1nc(-c2cccc(-c3nnco3)c2)n[nH]1; 1.90
9) O=C([C@H]1CCCCN1C(=O)COc1ccccc1)N1Cc2cc(F)c(OC3CCOCC3)cc2C1; 2.32
10) O=C(COc1ccccc1)N1CCC(n2c(COc3ccccc3)nc3cc(F)ccc32)CC1; 4.65
11) COc1ccc(Cl)cc1S(=O)(=O)N1CCS(=O)(=O)c2ccc(C(=O)Nc3ccc(C(=O)O)c(Cl)c3)cc21; 2.31
12) CC(=O)Nc1cc(-c2n[nH]c([C@H]3CCCCN3C(=O)COc3ccccc3)n2)ccc1F; 1.90
13) Cc1cc(C)cc(S(=O)(=O)c2nn(CCC(=O)O)c3ccc(C(=O)Nc4ccccc4)cc23)c1; 1.43
14) COc1ccc(Cl)cc1S(=O)(=O)N1CCS(=O)(=O)c2ccc(C(=O)Nc3ccc(C(=O)O)cc3)cc21; 1.48
15) COc1ccc(Cl)cc1S(=O)(=O)N1CCc2c(C)cc(C(=O)Nc3ccc(C(=O)O)c(F)c3)cc21; 1.85
16) O=C([C@H]1CCCCN1C(=O)COc1ccccc1)N1Cc2ccc(C3CCOCC3)cc2C1; 1.80
17) CC(=O)Nc1ccc(-n2nnc([C@H]3CCCCN3C(=O)COc3ccccc3)n2)cc1; 2.03
18) COc1ccc(Cl)cc1Cc1cn(C)c2ccc(C(=O)Nc3ccc(CC(=O)O)cc3)cc12; 2.11
19) O=C(COc1ccccc1)N1CCCC[C@@H]1c1nc(-c2ccc(Cl)cc2)no1; 2.28
20) N#Cc1ccc(-c2nc([C@H]3CCCCN3C(=O)COc3ccccc3)no2)cc1; 1.91
21) COc1ccc(Cl)cc1S(=O)(=O)c1c[nH]c2ccc(C(=O)Nc3ccc(C(=O)O)cc3)cc12; 1.24
22) Cn1cc(S(=O)(=O)c2cccc(Cl)c2)c2cc(C(=O)Nc3ccc(C(=O)O)cc3)ccc21; 1.27
23) O=C(COc1ccccc1)N1CCCC[C@@H]1c1noc(-c2cccc3[nH]cnc23)n1; 1.94
24) Cc1cc(-c2nc([C@H]3CCCCN3C(=O)COc3ccccc3)no2)[nH]n1; 2.27
25) O=C([C@H]1CCCCN1C(=O)COc1ccccc1)N1CCN(c2cc(Cl)cc(Cl)c2)CC1; 2.30
26) Cc1cc(C)cc(S(=O)(=O)n2ccc3ccc(C(=O)Nc4ccc(CC(=O)O)cc4)cc32)c1; 2.18
27) O=C([C@H]1CCCCN1C(=O)COc1ccccc1)N1CCc2ccc([N+](=O)[O-])cc2C1; 2.81
28) O=C(COc1ccccc1)N1CCCC[C@@H]1c1nc(-c2ccc(O)cc2)no1; 1.86
29) COc1ccc(Cl)cc1S(=O)(=O)N1CC[S+]([O-])c2ccc(C(=O)Nc3ccc(CC(=O)O)cc3)cc21 (configuration not stated); 2.34
30) COc1ccc(C)cc1S(=O)(=O)n1ccc2ccc(C(=O)Nc3ccc(C(=O)O)cc3)cc21; 1.47
31) COc1ccc(Cl)cc1S(=O)(=O)N1CCOc2c(C)cc(C(=O)Nc3nc(CC(=O)O)cs3)cc21; 1.73
32) O=C(COc1ccccc1)N1CCCC[C@@H]1c1nc(-c2cccc([N+](=O)[O-])n2)no1; 2.40
33) O=C([C@H]1CCCCN1C(=O)COc1ccccc1)N1CCN(c2ccccn2)CC1; 2.38
34) COCCN(c1cc(C(=O)Nc2ccn(CC(=O)O)n2)cc2c1OCO2)S(=O)(=O)c1cc(Cl)ccc1OC; 2.53
35) O=C(COc1ccccc1)N1CCCC[C@@H]1c1noc(-c2ccc3snnc3c2)n1; 1.89
